System: ADJ/PC6 tumour
METHOD_DESCRIPTION: Antitumour activity towards the ADJ/PC6 tumour in mice
Assay type: in vivo
EXPERIMENTAL_CONTEXT: dose (mg/kg)
RECORDED_METRIC: Highest % inhibition

>>> measured("OCN(CC(F)(F)F)c1nc(NCC(F)(F)F)nc(NCC(F)(F)F)n1")
"40 (5 x 50) %"
>>> measured("CN(CO)c1nc(N(C)CO)nc(N(C)CO)n1 [Compound 1, reference compound]")
"96 (5 x 100) %"

---

METHOD_DESCRIPTION: Toxicity (LD50) in the ADJ/PC6 mouse study
EXPERIMENTAL_CONTEXT: in vivo
RECORDED_METRIC: LD50 (mg/kg)

>>> measured("FC(F)(F)CNc1nc(NCC(F)(F)F)nc(NCC(F)(F)F)n1 [Compound 3]")
71
>>> measured("CN(CO)c1nc(N(C)CO)nc(N(C)CO)n1 [Compound 1, reference compound]")
140
>>> measured("C#CCN(CO)c1nc(N(CO)CC#C)nc(N(CO)CC#C)n1 [Compound 13]")
280
>>> measured("OCN(CC(F)(F)F)c1nc(NCC(F)(F)F)nc(NCC(F)(F)F)n1 [Compound 4]")
117

---

Each entry below carries its recorded IC50.
Test system: PC6 Murine plasmacytoma
METHOD_DESCRIPTION: Activity in vitro towards PC6 cell line
Assay type: cell-based
EXPERIMENTAL_CONTEXT: PC-6; PC6 Murine plasmacytoma; at least in duplicate; read-out: IC₅₀ PC6
RECORDED_METRIC: IC50 (µM)

>>> measured("CN(CO)c1nc(N(C)CO)nc(N(C)CO)n1 [Compound 1, reference compound]")
10.1
>>> measured("OCN(CC(F)(F)F)c1nc(N(CO)CC(F)(F)F)nc(N(CO)CC(F)(F)F)n1")
38.2
>>> measured("C#CCN(CO)c1nc(N(CO)CC#C)nc(N(CO)CC#C)n1")
36.8

meta.source: patent EP0505220A1
